As an illustration, consider measured Ki for molecules on UniProt:P11229.
Sequence (P11229 whole entry): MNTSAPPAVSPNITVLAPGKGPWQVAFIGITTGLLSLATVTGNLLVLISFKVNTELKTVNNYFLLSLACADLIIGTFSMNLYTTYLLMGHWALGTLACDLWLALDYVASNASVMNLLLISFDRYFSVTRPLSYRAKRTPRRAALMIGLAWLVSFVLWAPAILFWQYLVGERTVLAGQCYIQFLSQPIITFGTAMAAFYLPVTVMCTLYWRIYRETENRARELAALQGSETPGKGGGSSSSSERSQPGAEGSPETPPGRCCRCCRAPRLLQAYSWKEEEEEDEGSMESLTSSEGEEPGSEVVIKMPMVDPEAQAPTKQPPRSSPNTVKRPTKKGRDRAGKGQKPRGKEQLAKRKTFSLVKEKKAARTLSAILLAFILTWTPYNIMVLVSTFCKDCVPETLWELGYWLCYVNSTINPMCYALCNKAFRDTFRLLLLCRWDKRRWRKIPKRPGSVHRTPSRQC

Examples with their reported Ki follow.
[[record]]
compound_structure = "CCCCCCCNCCCc1ccccc1"
experimental_target = "UniProt:P11229"
value_observed = "> 10 µM"

[[record]]
compound_structure = "CCCCCCCCCCCCNCCCc1ccccc1"
experimental_target = "UniProt:P11229"
value_observed = "> 10 µM"


Let us examine a further case.
Prompt: Please indicate recorded Ki of `CCCCCCCCCCCCNCCCc1ccc([N+](=O)[O-])cc1` measured with UniProt:P11229.
Response: > 10 µM

* * *

target: pure guinea pig sigma-1 receptor (Cavia porcellus); assay: Competitive displacement of [3H]-; assay type: binding; settings: read-out: KI pure sigma-1 receptor; Table 1; [3H]-(+)-pentazocine displacement
Sequence (Q60492 whole entry): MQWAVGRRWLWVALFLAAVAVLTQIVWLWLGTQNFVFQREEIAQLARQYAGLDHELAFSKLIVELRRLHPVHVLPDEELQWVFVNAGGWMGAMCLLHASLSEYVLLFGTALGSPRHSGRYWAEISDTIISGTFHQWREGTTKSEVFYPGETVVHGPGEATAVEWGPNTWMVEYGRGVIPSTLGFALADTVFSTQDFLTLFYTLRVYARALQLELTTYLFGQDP
ASSAY_READOUT: Ki (µM)
Give the quantity in µM, number only.

[[record]]
compound = "CCCCCN [Amylamine]"
experimental_target = "pure guinea pig sigma-1 receptor (Cavia porcellus)"
value_observed = 167

[[record]]
compound = "CCCCN [Butylamine, reference compound]"
experimental_target = "pure guinea pig sigma-1 receptor (Cavia porcellus)"
value_observed = 477

[[record]]
compound = "CCCCCCCCN [Octylamine]"
experimental_target = "pure guinea pig sigma-1 receptor (Cavia porcellus)"
value_observed = 6


Prompt: Annotate the compound CCCCCCCCCCCCCCN [Tretradecylamine] with its measured Ki.
Response: 1

* * *

system: Du145; assay: Multiplex cytotoxicity assay; format: cell-based; settings: Homo sapiens, DU-145, read-out: IC50 Du145
ASSAY_READOUT: IC50 (µM)
Provide the reading as a plain figure in µM.

Reference set (3 entries):
[[record]]
compound = "CCCCCCCCCCCCNCCCc1ccc([N+](=O)[O-])cc1 [3b]"
value_observed = 17

[[record]]
compound = "CCCCCCCNCCCc1ccccc1 [2a, N-(3-Phenylpropyl)heptan-1-amine]"
value_observed = 25

[[record]]
compound = "CCCCCCCCCCCCNCCCc1ccccc1 [3a, N-(3-Phenylpropyl)dodecan-1-amine]"
value_observed = 51


Now examine the next entry.
Prompt: Indicate its recorded IC50; the compound in question is CCCCCCCNCCCc1ccc([N+](=O)[O-])cc1 [2b]
Response: 29

* * *

molecular target: D1 (dopamine receptor type 1) (Homo sapiens, UniProt P21728); experiment: NIMH PDSP secondary binding assay
Sequence (P21728 whole entry): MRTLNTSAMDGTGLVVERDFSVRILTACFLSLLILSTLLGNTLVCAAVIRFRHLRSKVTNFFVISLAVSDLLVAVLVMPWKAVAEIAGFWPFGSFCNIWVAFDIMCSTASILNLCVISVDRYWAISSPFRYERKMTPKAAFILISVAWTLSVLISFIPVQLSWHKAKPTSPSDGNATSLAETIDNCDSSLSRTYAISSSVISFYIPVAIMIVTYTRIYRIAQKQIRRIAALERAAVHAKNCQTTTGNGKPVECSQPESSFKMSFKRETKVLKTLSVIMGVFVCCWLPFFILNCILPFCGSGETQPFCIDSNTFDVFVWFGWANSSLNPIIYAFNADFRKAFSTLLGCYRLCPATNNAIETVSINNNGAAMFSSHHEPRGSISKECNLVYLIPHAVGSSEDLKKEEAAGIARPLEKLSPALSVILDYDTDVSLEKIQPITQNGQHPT
ASSAY_READOUT: Ki

Here's what some known entries look like.
[[record]]
molecule = "CCCCCCCCCCCCNCCCc1ccccc1 [3a, N-(3-Phenylpropyl)dodecan-1-amine]"
value_observed = "> 10 µM"

[[record]]
molecule = "CCCCCCCNCCCc1ccc([N+](=O)[O-])cc1 [2b]"
value_observed = "> 10 µM"

[[record]]
molecule = "CCCCCCCNCCCc1ccccc1 [2a, N-(3-Phenylpropyl)heptan-1-amine]"
value_observed = "> 10 µM"


Prompt: Annotate the molecule CCCCCCCCCCCCNCCCc1ccc([N+](=O)[O-])cc1 [3b] with its measured Ki.
Response: > 10 µM

* * *

Assay read-out pKi; system under study: SERT (serotonin transporter) (Homo sapiens, UniProt P31645).
Sequence (P31645 whole entry, species assumed): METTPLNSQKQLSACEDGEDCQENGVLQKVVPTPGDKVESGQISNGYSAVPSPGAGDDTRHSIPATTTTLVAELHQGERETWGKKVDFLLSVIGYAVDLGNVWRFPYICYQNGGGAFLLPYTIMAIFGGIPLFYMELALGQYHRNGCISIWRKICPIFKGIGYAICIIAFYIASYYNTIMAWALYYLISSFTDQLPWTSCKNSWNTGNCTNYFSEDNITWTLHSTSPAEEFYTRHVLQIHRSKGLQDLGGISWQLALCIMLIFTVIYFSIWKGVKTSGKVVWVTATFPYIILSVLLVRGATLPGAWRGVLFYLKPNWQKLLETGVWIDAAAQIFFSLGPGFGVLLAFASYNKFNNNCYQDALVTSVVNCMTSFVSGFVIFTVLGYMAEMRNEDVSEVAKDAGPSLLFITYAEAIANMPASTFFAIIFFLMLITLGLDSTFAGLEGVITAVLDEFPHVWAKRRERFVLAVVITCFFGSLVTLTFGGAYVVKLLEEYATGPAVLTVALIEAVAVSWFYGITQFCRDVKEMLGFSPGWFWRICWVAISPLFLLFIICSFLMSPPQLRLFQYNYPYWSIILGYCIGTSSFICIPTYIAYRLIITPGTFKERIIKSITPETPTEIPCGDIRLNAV
Interpret pKi as the negative base-10 log of the concentration measured in mol/L.

[[record]]
compound = "CCCCCCCNCCCc1ccc([N+](=O)[O-])cc1 [2b]"
value_observed = 5.96


// next item, pKi requested
Prompt: Provide pKi, system SERT (serotonin transporter) (Homo sapiens, UniProt P31645), entry CCCCCCCCCCCCNCCCc1ccc([N+](=O)[O-])cc1 [3b]
Response: 6.15
